- Test system: MDA-MB-436 (a BRCA-1-mutated breast cancer cell line)
- procedure summary: Cell proliferation assay, three-day, CellTiter-Glo, MDA-MB-436
- Format: cell-based
- cond: Homo sapiens, MDA-MB-436, MDA-MB-436, Conc. 11.11 uM, replicate 1; read-out: Inh % 1
observation type: inhibition at 11.11 µM (%)
One number for each entry, in %.

NC(=O)c1cccc2[nH]c(C3CCN(CCC(=O)Nc4ccccc4)C3)nc12 (centres unmarked) :: -2.5
C[C@]1(c2nc3c(C(N)=O)cccc3[nH]2)CCCN1 [pc1, Veliparib, reference compound] :: 3.2
NCCN1CCC(c2nc3c(C(N)=O)cccc3[nH]2)C1 (centres unmarked) :: -3.6

Dear colleague, could you please provide inhibition at 11.11 µM for the molecules listed below?
1. NC(=O)c1cccc2[nH]c(C3CCN(CCCNc4ccccc4)C3)nc12 (centres unmarked)
2. O=C(c1cc(Cc2n[nH]c(=O)c3ccccc23)ccc1F)N1CCN(C(=O)C2CC2)CC1 [pc2, Olaparib, reference compound]
3. COc1ccc(C(=O)CCN2CCC(c3nc4c(C(N)=O)cccc4[nH]3)C2)cc1 (centres unmarked)
4. NC(=O)c1cccc2[nH]c(C3CCN(CCCNC(=O)c4ccccc4)C3)nc12 (centres unmarked)

-9.3
23.3
-13.6
-2.1

Request body: readout inhibition at 11.11 µM, system MDA-MB-436 (a BRCA-1-mutated breast cancer cell line), query NC(=O)c1cccc2[nH]c(C3CCN(CCCN4C(=O)c5ccccc5C4=O)C3)nc12 (centres unmarked) . Return the value. 15.7
